- Target Desc: human CB2 receptor (Homo sapiens, UniProt P34972)
- Construct: host or cells: CHO-K1
- Sequence (P34972 whole entry): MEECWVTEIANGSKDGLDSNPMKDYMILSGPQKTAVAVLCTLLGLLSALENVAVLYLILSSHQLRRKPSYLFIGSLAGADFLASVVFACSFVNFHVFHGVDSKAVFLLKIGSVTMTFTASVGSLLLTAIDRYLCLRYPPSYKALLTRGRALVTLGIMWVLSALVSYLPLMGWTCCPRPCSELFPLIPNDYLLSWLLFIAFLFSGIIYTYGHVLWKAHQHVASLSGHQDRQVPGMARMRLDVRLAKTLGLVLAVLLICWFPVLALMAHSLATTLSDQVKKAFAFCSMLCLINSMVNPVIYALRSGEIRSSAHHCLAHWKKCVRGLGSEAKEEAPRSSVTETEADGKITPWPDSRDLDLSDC
- Test Summary: CB2 radioligand competitive binding assay ([3H]CP 55,940 displacement)
- Setup Conditions: fold difference in selectivity between CB1 and CB2 binding, in the column of the receptor with the higher binding affinity
// reported Selectivity CB2 for each item listed
Readout Label: Selectivity CB2

* CCCCCc1cc(O)c(C/C=C(\C)CCC=C(C)C)c(O)c1C(=O)NS(=O)(=O)c1ccccc1 [Compound 58] | 1.88 fold
* CCCCCc1cc(O)c(C/C=C(\C)CCC=C(C)C)c(O)c1S(C)(=O)=O [Compound 3] | 1.47 fold
* CCCCCc1cc(O)c(C/C=C(\C)CCC=C(C)C)c(O)c1S(=O)(=O)NC(C)C [Compound 23] | 18.43 fold
* CCCCCc1cc(O)c(C/C=C(\C)CCC=C(C)C)c(O)c1S(=O)(=O)NC [Compound 20] | 3.93 fold

---

- Target Desc: human CB1 receptor (Homo sapiens, UniProt P21554)
- Construct: host or cells: CHO-K1
- Sequence (P21554 whole entry): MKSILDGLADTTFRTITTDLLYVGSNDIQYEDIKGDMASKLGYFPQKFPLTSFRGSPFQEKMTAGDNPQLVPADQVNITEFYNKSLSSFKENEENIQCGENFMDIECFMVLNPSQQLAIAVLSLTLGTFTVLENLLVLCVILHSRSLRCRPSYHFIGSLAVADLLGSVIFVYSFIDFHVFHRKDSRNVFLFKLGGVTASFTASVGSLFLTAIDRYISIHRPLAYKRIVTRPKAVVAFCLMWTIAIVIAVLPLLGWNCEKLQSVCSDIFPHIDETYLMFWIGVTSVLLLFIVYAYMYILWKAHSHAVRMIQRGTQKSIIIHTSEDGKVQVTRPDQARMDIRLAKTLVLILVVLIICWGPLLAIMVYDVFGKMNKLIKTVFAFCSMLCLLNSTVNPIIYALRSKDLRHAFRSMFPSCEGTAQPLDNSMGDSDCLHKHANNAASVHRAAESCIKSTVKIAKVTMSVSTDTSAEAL
- Test Summary: CB1 radioligand competitive binding assay ([3H]CP 55,940 displacement)
- Setup Conditions: 0.8 nM [3H]CP 55,940, membranes from CHO-K1 cells expressing human CB1 receptor, dose-response; read-out: CB1 IC50
pIC50: −log10 of the molar value.
Readout Label: pIC50

• CCCCCc1cc(O)c(C/C=C(\C)CCC=C(C)C)c(O)c1S(=O)(=O)Nc1ccccc1 = 6.31 to 7.00
• CCCCCc1cc(O)c(C/C=C(\C)CCC=C(C)C)c(O)c1S(=O)(=O)NC1CCCCC1 = < 6.00
• CCCCCc1cc(O)c(C/C=C(\C)CCC=C(C)C)c(O)c1S(=O)(=O)NC1CCC1 = < 6.00
• CCCCCc1cc(O)c(C/C=C(\C)CCC=C(C)C)c(O)c1S(=O)(=O)NC(C)C = < 6.00
• CCCCCc1cc(O)c(C/C=C(\C)CCC=C(C)C)c(O)c1C(=O)NS(=O)(=O)c1cccnc1 = < 6.00
• CCCCCc1cc(O)c(C/C=C(\C)CCC=C(C)C)c(O)c1S(C)(=O)=O = < 6.00
• CCCCCc1cc(O)c(C/C=C(\C)CCC=C(C)C)c(O)c1C(=O)NS(=O)(=O)c1ccccc1 = < 6.00
• C=CCNS(=O)(=O)c1c(CCCCC)cc(O)c(C/C=C(\C)CCC=C(C)C)c1O = < 6.00
• CCCCCc1cc(O)c(C/C=C(\C)CCC=C(C)C)c(O)c1S(=O)(=O)N1CCOCC1 = 6.00 to 6.30
• CCCCCc1cc(O)c(C/C=C(\C)CCC=C(C)C)c(O)c1S(=O)(=O)Oc1ccccc1 = < 6.00
• CCCCCCNS(=O)(=O)c1c(CCCCC)cc(O)c(C/C=C(\C)CCC=C(C)C)c1O = < 6.00
